- MEASUREMENT_PROTOCOL: Serum metabolite concentrations and parent compound/metabolite ratios at baseline and in the third trimester (TDM, linear mixed model)
- CONDITIONS_USED: day 0 (non-pregnant); only analyses with metabolite data; dose-adjusted to DDD
PROPERTY_NAME: Baseline conc., Estimate (parent compound or metabolite) (ng/mL)

Some molecules with recorded Baseline conc., Estimate (parent compound or metabolite):
MOLECULE	UNITS_LABEL	ENDPOINT_VALUE
N[C@H]1CC[C@@H](c2ccc(Cl)c(Cl)c2)c2ccccc21 [Desmethylsertraline]	ng/mL	18.4
CN(C)CCC[C@@]1(c2ccc(F)cc2)OCc2cc(C#N)ccc21 [Escitalopram]	ng/mL	8.4
COc1ccc(C(CN(C)C)C2(O)CCCCC2)cc1 (stereo not drawn) [Venlafaxine]	ng/mL	35.8

a. CN[C@H]1CC[C@@H](c2ccc(Cl)c(Cl)c2)c2ccccc21 [Sertraline]
b. NCCC(Oc1ccc(C(F)(F)F)cc1)c1ccccc1 (stereo not drawn) [Norfluoxetine]
c. CNCCCC1(c2ccc(F)cc2)OCc2cc(C#N)ccc21 (stereo not drawn) [Desmethylcitalopram]
d. CN(C)CCCC1(c2ccc(F)cc2)OCc2cc(C#N)ccc21 (stereo not drawn) [Citalopram]
Output the entries ranked by Baseline conc., Estimate (parent compound or metabolite) from maximum down to minimum. Labels, requested order.
b, d, c, a
(b: 83.7 ng/mL, d: 32.3 ng/mL, c: 12.6 ng/mL, a: 8.6 ng/mL)

====

- MEASUREMENT_PROTOCOL: Dose-adjusted serum antidepressant concentrations across pregnancy compared to the women's own baseline (routine TDM, LC-MS, linear mixed model)
- Type: in vivo, human
- CONDITIONS_USED: female, human, serum, 10 mg/day; one analysis in week 4; dose-adjusted; read-out: Observed serum concentration, outlier not shown in Fig 2
PROPERTY_NAME: concentration at 4 gestational week (ng/mL)
Return type: number; implicit unit ng/mL.

Reported concentration at 4 gestational week for CN(C)CCC[C@@]1(c2ccc(F)cc2)OCc2cc(C#N)ccc21 was 36

====

- MEASUREMENT_PROTOCOL: Serum metabolite concentrations and parent compound/metabolite ratios at baseline and in the third trimester (TDM, linear mixed model)
- CONDITIONS_USED: day 0 (non-pregnant); ratio
PROPERTY_NAME: Parent compound / metabolite ratio (PMR), baseline estimate

I. CN(C)CCCC1(c2ccc(F)cc2)OCc2cc(C#N)ccc21 (stereo not shown)
II. CNCCC(Oc1ccc(C(F)(F)F)cc1)c1ccccc1 (stereo not shown)
III. CN(C)CCC[C@@]1(c2ccc(F)cc2)OCc2cc(C#N)ccc21
IV. CN[C@H]1CC[C@@H](c2ccc(Cl)c(Cl)c2)c2ccccc21
Which order do these items fall in when sorted by Parent compound / metabolite ratio (PMR), baseline estimate from largest to smallest? Answer by listing the labels in the requested order.
I, III, II, IV

====

- MEASUREMENT_PROTOCOL: Serum metabolite concentrations and parent compound/metabolite ratios at baseline and in the third trimester (TDM, linear mixed model)
- CONDITIONS_USED: baseline to third trimester (gestational week 34)
PROPERTY_NAME: Parent compound / metabolite ratio (PMR), change from baseline, estimate (%)

1. CN(C)CCCC1(c2ccc(F)cc2)OCc2cc(C#N)ccc21 (stereo not shown) [Citalopram]
2. CNCCC(Oc1ccc(C(F)(F)F)cc1)c1ccccc1 (stereo not shown) [Fluoxetine]
3. CN[C@H]1CC[C@@H](c2ccc(Cl)c(Cl)c2)c2ccccc21 [Sertraline]
Can you order these entries from above by Parent compound / metabolite ratio (PMR), change from baseline, estimate? Start with the largest number and work down. Answer format: the labels, ordered as requested.
1, 3, 2

====

- MEASUREMENT_PROTOCOL: Serum metabolite concentrations and parent compound/metabolite ratios at baseline and in the third trimester (TDM, linear mixed model)
- CONDITIONS_USED: loge-transformed parent compound/metabolite ratio; baseline
PROPERTY_NAME: Loge PMR, Intercept estimate

COMPOUND	PROPERTY_NAME	ENDPOINT_VALUE
COc1ccc(C(CN(C)C)C2(O)CCCCC2)cc1 (centres unmarked) [Venlafaxine]	Loge PMR, Intercept estimate	-0.927

1. CN[C@H]1CC[C@@H](c2ccc(Cl)c(Cl)c2)c2ccccc21 [Sertraline]
2. CN(C)CCC[C@@]1(c2ccc(F)cc2)OCc2cc(C#N)ccc21 [Escitalopram]
3. CN(C)CCCC1(c2ccc(F)cc2)OCc2cc(C#N)ccc21 (centres unmarked) [Citalopram]
4. CNCCC(Oc1ccc(C(F)(F)F)cc1)c1ccccc1 (centres unmarked) [Fluoxetine]
Thanks in advance: please rank these 4 entries by Loge PMR, Intercept estimate, highest to lowest. Order the labels as requested and list them.
3, 2, 4, 1

====

- MEASUREMENT_PROTOCOL: Dose-adjusted serum antidepressant concentrations across pregnancy compared to the women's own baseline (routine TDM, LC-MS, linear mixed model)
- Type: in vivo, human
- CONDITIONS_USED: female, human, serum, 10 mg/day; one analysis in week 5; dose-adjusted; read-out: Observed serum concentration, outlier not shown in Fig 2
PROPERTY_NAME: concentration at 5 gestational week (ng/mL)
Field format: number, assumed ng/mL, no unit text.

The reported concentration at 5 gestational week of the compound CN(C)CCC[C@@]1(c2ccc(F)cc2)OCc2cc(C#N)ccc21 was 40

====

- MEASUREMENT_PROTOCOL: Serum metabolite concentrations and parent compound/metabolite ratios at baseline and in the third trimester (TDM, linear mixed model)
- CONDITIONS_USED: baseline to third trimester (gestational week 34)
PROPERTY_NAME: Change from baseline conc., Estimate (parent compound or metabolite) (%)

See these solved cases before continuing.
COMPOUND	UNITS_LABEL	ENDPOINT_VALUE
CNCCCC1(c2ccc(F)cc2)OCc2cc(C#N)ccc21 (stereo not drawn)	%	-33
COc1ccc(C(CN(C)C)C2(O)CCCCC2)cc1 (stereo not drawn)	%	-40
CN(C)CC(c1ccc(O)cc1)C1(O)CCCCC1 (stereo not drawn)	%	-13
CNCCC(Oc1ccc(C(F)(F)F)cc1)c1ccccc1 (stereo not drawn)	%	-31

1. NCCC(Oc1ccc(C(F)(F)F)cc1)c1ccccc1 (stereo not drawn)
2. CN(C)CCCC1(c2ccc(F)cc2)OCc2cc(C#N)ccc21 (stereo not drawn)
Hi team, can someone confirm which has the larger Change from baseline conc., Estimate (parent compound or metabolite): 1 or 2 ? Thanks. Please indicate the selected item by its label.
1
(1: 0%, 2: -39%)

====

- MEASUREMENT_PROTOCOL: Serum metabolite concentrations and parent compound/metabolite ratios at baseline and in the third trimester (TDM, linear mixed model)
- CONDITIONS_USED: gestational week 34; ratio
PROPERTY_NAME: Parent compound / metabolite ratio (PMR), third trimester estimate

COMPOUND	ENDPOINT_VALUE
CNCCC(Oc1ccc(C(F)(F)F)cc1)c1ccccc1 (stereo not shown)	0.6
CN(C)CCCC1(c2ccc(F)cc2)OCc2cc(C#N)ccc21 (stereo not shown)	2.3

I. CN(C)CCC[C@@]1(c2ccc(F)cc2)OCc2cc(C#N)ccc21
II. CN[C@H]1CC[C@@H](c2ccc(Cl)c(Cl)c2)c2ccccc21
Given I and given II , which shows the smaller recorded Parent compound / metabolite ratio (PMR), third trimester estimate? Choose, then provide that item's label.
II
(II: 0.4, I: 2.5)

====

- MEASUREMENT_PROTOCOL: Serum metabolite concentrations and parent compound/metabolite ratios at baseline and in the third trimester (TDM, linear mixed model)
- CONDITIONS_USED: analyses with metabolite data (Table 3)
PROPERTY_NAME: Change of parent compound or metabolite serum concentration in pregnancy (in words)

TEST_SMILES	ENDPOINT_VALUE
CN[C@H]1CC[C@@H](c2ccc(Cl)c(Cl)c2)c2ccccc21	increasing levels
N[C@H]1CC[C@@H](c2ccc(Cl)c(Cl)c2)c2ccccc21	increasing levels

====

- MEASUREMENT_PROTOCOL: Serum metabolite concentrations and parent compound/metabolite ratios at baseline and in the third trimester (TDM, linear mixed model)
- CONDITIONS_USED: loge-transformed parent compound/metabolite ratio; per week of pregnancy
PROPERTY_NAME: Loge PMR, Change per gestational week estimate

COMPOUND	ENDPOINT_VALUE
COc1ccc(C(CN(C)C)C2(O)CCCCC2)cc1 (centres unmarked)	-0.011

P. CN[C@H]1CC[C@@H](c2ccc(Cl)c(Cl)c2)c2ccccc21
Q. CNCCC(Oc1ccc(C(F)(F)F)cc1)c1ccccc1 (centres unmarked)
R. CN(C)CCC[C@@]1(c2ccc(F)cc2)OCc2cc(C#N)ccc21
S. CN(C)CCCC1(c2ccc(F)cc2)OCc2cc(C#N)ccc21 (centres unmarked)
Descending sort on Loge PMR, Change per gestational week estimate required. Give the order by naming the labels one after another as requested.
R, S, P, Q

====

- MEASUREMENT_PROTOCOL: Serum metabolite concentrations and parent compound/metabolite ratios at baseline and in the third trimester (TDM, linear mixed model)
- CONDITIONS_USED: loge-transformed; baseline (day 0 of pregnancy); only analyses with metabolite data
PROPERTY_NAME: Loge serum concentration, Intercept estimate (parent compound or metabolite)

MOLECULE	ENDPOINT_VALUE
COc1ccc(C(CN(C)C)C2(O)CCCCC2)cc1 (stereo not drawn)	3.577
CN(C)CCCC1(c2ccc(F)cc2)OCc2cc(C#N)ccc21 (stereo not drawn)	3.475
CNCCC(Oc1ccc(C(F)(F)F)cc1)c1ccccc1 (stereo not drawn)	4.353
NCCC(Oc1ccc(C(F)(F)F)cc1)c1ccccc1 (stereo not drawn)	4.427

a. CN(C)CC(c1ccc(O)cc1)C1(O)CCCCC1 (stereo not drawn)
b. CN[C@H]1CC[C@@H](c2ccc(Cl)c(Cl)c2)c2ccccc21
Between the entries labelled a and b , which has a larger Loge serum concentration, Intercept estimate (parent compound or metabolite) value on record? // output: label of the selected item
a
(a: 4.516, b: 2.147)

Reference source: paper PMC5510868
